Hello, the source for this data is the supplement of paper PMC3545927, in case you need it.

# target-or-system: furin, P09958;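 note: purified furin at 1:10 enzyme:substrate in 50 mM HEPES pH 7.5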
# Sequence (P09958 whole entry): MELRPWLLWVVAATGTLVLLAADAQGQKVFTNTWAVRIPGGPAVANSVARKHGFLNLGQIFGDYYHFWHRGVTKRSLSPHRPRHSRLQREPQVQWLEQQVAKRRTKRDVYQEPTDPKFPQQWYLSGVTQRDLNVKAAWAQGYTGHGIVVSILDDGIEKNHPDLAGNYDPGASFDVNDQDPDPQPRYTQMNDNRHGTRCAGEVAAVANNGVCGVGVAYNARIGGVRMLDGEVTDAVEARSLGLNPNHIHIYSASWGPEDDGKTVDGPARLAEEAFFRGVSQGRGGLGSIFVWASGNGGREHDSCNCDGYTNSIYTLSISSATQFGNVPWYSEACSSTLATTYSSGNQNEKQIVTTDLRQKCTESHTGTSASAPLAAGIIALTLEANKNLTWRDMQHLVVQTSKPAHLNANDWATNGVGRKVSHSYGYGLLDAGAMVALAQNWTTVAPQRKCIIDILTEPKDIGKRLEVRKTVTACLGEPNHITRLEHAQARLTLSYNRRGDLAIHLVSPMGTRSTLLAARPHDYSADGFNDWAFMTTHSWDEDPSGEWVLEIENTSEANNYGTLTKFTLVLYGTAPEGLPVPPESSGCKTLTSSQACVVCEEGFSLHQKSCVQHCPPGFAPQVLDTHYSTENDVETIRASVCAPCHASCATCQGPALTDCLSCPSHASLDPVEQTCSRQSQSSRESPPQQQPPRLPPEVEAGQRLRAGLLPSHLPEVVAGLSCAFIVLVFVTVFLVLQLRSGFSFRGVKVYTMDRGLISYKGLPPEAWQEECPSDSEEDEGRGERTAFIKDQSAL
# measurement-protocol: furin cleavage Z-score vs untreated control; higher = more cleavage, active = 3.5 or more, inactive = 1 or less, 8 variable residues between constant flanks
# assay-conditions: 15 min
Some of the results follow. The hit rate among all sequences tested is not known here.
Threshold check on furin cleavage Z-score: at or above 0.3 gives met, strictly below gives not met.

Problem: Given CATTYCSGSWAGNASASA [HC1869] , state whether its furin cleavage Z-score is at least 0.3.
Solution: not met

Problem: Is furin cleavage Z-score at least 0.3? Consider CACNDSLNTGAGNASASA [HC375]
Solution: met

Problem: For this sequence, is measured furin cleavage Z-score 0.3 or higher? CACAWYELTPAGNASASA [HC923]
Solution: met
